meta.source: ChEMBL document CHEMBL3797052

CC50 reference
Experiment: Antiproliferative activity against human Hs 578T cells assessed as growth inhibition after 48 hrs by sulforhodamine B assay
Format: functional
Conditions: read-out: LC50 (the source's name)
measured quantity: CC50

>>> endpoint_value("CNC(=O)c1cc(Oc2ccc3nc(NC(=O)Nc4ccc(Cl)c(Cl)c4)sc3c2)ccn1")
"> 100 µM"
>>> endpoint_value("CNC(=O)c1cc(Oc2ccc3nc(NC(=O)c4cc(C(F)(F)F)cc(C(F)(F)F)c4)sc3c2)ccn1")
"> 100 µM"
>>> endpoint_value("CNC(=O)c1cc(Oc2ccc(NC(=O)Nc3ccc(Cl)c(C(F)(F)F)c3)cc2)ccn1")
"100 µM"
>>> endpoint_value("CNC(=O)c1cc(Oc2ccc3nc(NC(=O)Nc4ccc(Cl)c(C(F)(F)F)c4)sc3c2)ccn1")
"> 100 µM"
>>> endpoint_value("CNC(=O)c1cc(Oc2ccc3nc(NC(=O)Nc4cc(C(F)(F)F)cc(C(F)(F)F)c4)sc3c2)ccn1")
"> 100 µM"
